Tested on: CYPIR (Rice Flatsedge)
assayExplanation: Postemergence weed control under flooded paddy conditions
Assay type: in vivo, Cyperus iria
measurementContext: rate 0.1250 kg/ha, postemergence weeds, 3-4 weeks after treatment
quantityMeasured: Herbicidal rating CYPIR
I only need the number, thanks.

Readout Herbicidal rating CYPIR for Cn1c(C(F)(F)F)cc(=O)n(-c2cc(N=C3SCC(=O)N3CCC(=O)O)c(Cl)cc2F)c1=O [Compound 31] , test system CYPIR (Rice Flatsedge), was 0.0

Readout Herbicidal rating CYPIR for CCC1SC(=Nc2cc(-n3c(=O)cc(C(F)(F)F)n(C)c3=O)c(F)cc2Cl)N(C)C1=O (centres unmarked) [Compound 10] , test system CYPIR (Rice Flatsedge), was 2.0

Readout Herbicidal rating CYPIR for CCOP(=O)(CN1C(=O)CSC1=Nc1cc(-n2c(=O)cc(C(F)(F)F)n(C)c2=O)c(F)cc1Cl)OCC [Compound 35] , test system CYPIR (Rice Flatsedge), was 0.0

Readout Herbicidal rating CYPIR for CCOC(=O)COc1ccccc1CC1S/C(=N/c2cc(-n3c(=O)cc(C(F)(F)F)n(C)c3=O)c(F)cc2Cl)N(CC(=O)OCC)C1=O (centres unmarked) [Compound 42] , test system CYPIR (Rice Flatsedge), was 0.0

Readout Herbicidal rating CYPIR for CCOC(=O)CN1C(=O)C(CC(=O)OCc2ccccc2)OC1=Nc1cc(-n2c(=O)cc(C(F)(F)F)n(C)c2=O)c(F)cc1Cl (centres unmarked) [Compound 40] , test system CYPIR (Rice Flatsedge), was 0.0

Readout Herbicidal rating CYPIR for CCOC(=O)CN1CCSC1=Nc1cc(-n2nc(C)n(C(F)F)c2=O)c(F)cc1Cl [Compound 36] , test system CYPIR (Rice Flatsedge), was 5.0

Readout Herbicidal rating CYPIR for CCOC(=O)CN1C(=O)C(C)SC1=Nc1cc(-n2c(=O)cc(C(F)(F)F)n(C)c2=O)c(F)cc1Cl (centres unmarked) [Compound 12] , test system CYPIR (Rice Flatsedge), was 1.0

Readout Herbicidal rating CYPIR for COC(=O)CN1C(=O)CSC1=Nc1cc(-n2c(=O)cc(C(F)(F)F)n(C)c2=O)c(F)cc1Cl [Compound 17] , test system CYPIR (Rice Flatsedge), was 6.0

Readout Herbicidal rating CYPIR for O=C1CSC(=Nc2cc(N3C(=O)C4=C(CCCC4)C3=O)c(F)cc2Cl)N1c1ccccc1 [Compound 3] , test system CYPIR (Rice Flatsedge), was 0.0

Readout Herbicidal rating CYPIR for CCOC(=O)CN1C(=O)CSC1=Nc1cc(N2C(=O)C3=C(CCCC3)C2=O)c(F)cc1Cl [Compound 47] , test system CYPIR (Rice Flatsedge), was 4.0

Readout Herbicidal rating CYPIR for CCOC(=O)CN1C(=O)C(CC(=O)O)O/C1=N/c1cc(-n2c(=O)cc(C(F)(F)F)n(C)c2=O)c(F)cc1Cl (centres unmarked) [Compound 41] , test system CYPIR (Rice Flatsedge), was 0.0
